Tested on: Bacillus subtilis
Assay: cleaved RNA product abundance (RNA/gDNA barcode ratio) relative to median wild-type variant (ratio to wild type); higher = more accumulation of the downstream cleavage product
Conditions: experiment (reporter, strain, medium): exp 2b: truncated aprE reporter, strain BJT200; cleavage site: cggR-gapA (positions -7 to +36 mutated)
Hi, to clarify the labels: satisfied covers cleaved RNA product abundance from 0.3 upward, not satisfied covers anything below 0.3.

query sequence: ACAGACGAAGGAGCCGCAAAGAAGTTTTTAAGGGATTAATAATCCCTCAATATAAATATCTCTCACTTATTTAAA
assay target: Bacillus subtilis
qualitative label: satisfied
//
query sequence: ACAGACGAAGGAGCCGCAAACAAGTTATTAAGGGATGAATAATCCCTCAAGATAAATATCTCTCACTTATTTAAA
assay target: Bacillus subtilis
qualitative label: not satisfied
//
query sequence: ACAGACGAAGGAGCCGCAAAGAAGTAATTAAGGGATGAATAATCCTTCAATATAAATATCTCTCACTTATTTAAA
assay target: Bacillus subtilis
qualitative label: not satisfied
//
query sequence: ACAGACGAAGGAGCCGCAAAGAAGTTATTAAGGGATGAATAATACCTCAATATAAATAACTCTCACTTATTTAAA
assay target: Bacillus subtilis
qualitative label: not satisfied
//
query sequence: ACAGACGAAGGAGCCGCAAAAAAGTTATTAAGGGATGAATAATCCCTCAATATAAAAATCTCTCACTTATTTAAA
assay target: Bacillus subtilis
qualitative label: satisfied
//
query sequence: ACAGACGAAGGAGCCGCAAAGAAGTTATTAAAGGGATGAATAATCCCTCAATATAAATATCTCTCACTTATTTAA
assay target: Bacillus subtilis
qualitative label: not satisfied
//
query sequence: ACAGACGAAGGAGCCGCAAAGAAGTTACTAAGGGATGATTAATCCCTCAATATAAATATCTCTCACTTATTTAAA
assay target: Bacillus subtilis
qualitative label: not satisfied
//
query sequence: ACAGACGAAGGAGCCGCAAAGAAGTTATCAGGGGATGAATAATCCCTCAATATAAATATCTCTCACTTATTTAAA
assay target: Bacillus subtilis
qualitative label: satisfied
//
query sequence: ACAGACGAAGGAGCCGCAAAAAAGTTATTAAGGTATGAATAATCCCTCAATATAAATATCTCTCACTTATTTAAA
assay target: Bacillus subtilis
qualitative label: not satisfied
//
query sequence: ACAGACGAAGGAGCCGCAAAGAAGTTATTAACGGCTGAATAATCCCTCAATATAAATATCTCTCACTTATTTAAA
assay target: Bacillus subtilis
qualitative label: not satisfied
//
query sequence: ACAGACGAAGGAGCCGCAAAGAAGTTATTAAGGGATGAATAATCTCTAAATATAAATATCTCTCACTTATTTAAA
assay target: Bacillus subtilis
qualitative label: satisfied
//
query sequence: ACAGACGAAGGAGCCGCAACGAAGTTATTAAGGGATAAATAATCCCTCAATATAAATATCTCTCACTTATTTAAA
assay target: Bacillus subtilis
qualitative label: satisfied
//
query sequence: ACAGACGAAGGAGCCGCAAAGATGATATTAAGGGATGAATAATCCCTCAATATAAATATCTCTCACTTATTTAAA
assay target: Bacillus subtilis
qualitative label: satisfied
//
query sequence: ACAGACGAAGGAGCCGCAAAGTAGTTATTTAGGGATGAATAATCCCTCAATATAAATATCTCTCACTTATTTAAA
assay target: Bacillus subtilis
qualitative label: satisfied
//
query sequence: ACAGACGAAGGAGCCGCAAAGAAGTTATTAAGGGAAGAATAATCCGTCAATATAAATATCTCTCACTTATTTAAA
assay target: Bacillus subtilis
qualitative label: not satisfied
